Item-by-item account of TGI
# System: MOLT-4 leukemia
# Procedure details: NCI tumour cell line growth inhibition, 48 h

Some solved cases for reference:
O=CC1C[C@@H](N2C(=O)O[C@@H](c3ccccc3)[C@H]2c2ccccc2)[C@@H]1COCc1ccccc1 (stereo not given in full) ... 84.4 µM
CCCCCCCCCC1CC(=O)NCC(=O)NC(C(C)C)C(=O)NC(CC(C)C)C(=O)NC(C)C(=O)NC(C(C)C)C(=O)O1 (stereo not given) ... > 52.4 µM
Cc1nn(C(=O)Cc2ccccc2)c2c1C(c1ccccc1[N+](=O)[O-])SC(N)=N2 (stereo not given) ... > 100 µM
CCN(CC)c1cccc2c1C1(O)CCC3(CC21)OCCCCO3 (stereo not given) ... > 100 µM
CC(C)CCCC(C)[C@H]1CC[C@H]2[C@@H]3CC[C@H]4C[C@@H](CCC=C(c5cc(Cl)c(O)c(C(=O)O)c5)c5cc(Cl)c(O)c(C(=O)O)c5)CC[C@]4(C)[C@H]3CC[C@]12C (stereo not given in full) (tested in a mixture with another compound) ... > 50 µM
Cc1csc2nc3[nH]ncc3c(=O)n12 ... > 100 µM

(Q) Given the molecule `O=C(Cc1ccccc1)NNc1nc(NNC(=O)c2ccncc2)nc(Nc2ccc(Cl)cc2)n1` , write its reported TGI.
(A) > 10 µM

(Q) Give the measured TGI for `CN(C)/C=C/c1nnnn1-c1ccc(I)cc1`
(A) 34.1 µM
